Origin of the recorded values: PubChem BioAssay (NCI)

- System: BT-549 breast
- test: NCI tumour cell line growth inhibition, 48 h; in the data active = GI50 below about 0.43 µM; inactive = the rest
Your response should consist of one outcome taken from label 1 (active), label 0 (inactive)

Examples from the recorded data:
| compound | label |
| --- | --- |
| C1CC[N-]CC1.C1CC[N-]CC1.C1CC[N-]CC1.C1CC[N-]CC1.[Cl][Rh][Cl] | label 0 |
| Nc1ccccc1C#C/C=C\C#Cc1ccccc1C(F)(F)F | label 0 |
| CC(C)(C)N1CCC1C(N)=O (stereo unspecified) | label 0 |

Each compound tested received a call. Report the one for `Oc1ccc(Cc2ccc(O)c3ncccc23)c2cccnc12` .
label 1

Each compound tested received a call. Report the one for `COc1ccc(/C=C/C(=O)c2cc3c(N)c(C(=O)Nc4ccccc4Cl)sc3nc2C)cc1` .
label 0

Each compound tested received a call. Report the one for C[C@]12CCC3[C@@H](C[C@@H]4SC(Nc5ccccc5)=N[C@@]45CC(=O)CC[C@]35C)[C@@H]1CCC2=O (stereo partly specified) .
label 0
